Listing of entries alongside the reported pEC50.
biological target: D(2) dopamine receptor (Homo sapiens); assay: biochemical
Sequence (P14416 whole entry): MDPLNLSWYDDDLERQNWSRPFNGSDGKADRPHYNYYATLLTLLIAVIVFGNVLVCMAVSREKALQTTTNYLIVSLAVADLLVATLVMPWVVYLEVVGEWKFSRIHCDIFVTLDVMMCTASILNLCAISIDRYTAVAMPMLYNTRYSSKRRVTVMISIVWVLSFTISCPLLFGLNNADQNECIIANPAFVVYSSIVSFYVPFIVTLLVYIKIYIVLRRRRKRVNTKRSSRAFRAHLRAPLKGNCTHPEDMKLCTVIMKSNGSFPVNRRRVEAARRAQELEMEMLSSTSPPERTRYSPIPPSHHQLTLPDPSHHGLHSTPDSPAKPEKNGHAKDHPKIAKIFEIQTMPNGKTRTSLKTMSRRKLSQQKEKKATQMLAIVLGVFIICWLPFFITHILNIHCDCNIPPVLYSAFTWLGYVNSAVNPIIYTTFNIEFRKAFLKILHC
Scale: pEC50 equals -log10([C]), with [C] in mol/L.

# Chemical string, pEC50
data = [
    ("CCCN(CCN1CCN(c2cccc3ncccc23)CC1)[C@H]1CCc2nc(N)sc2C1", 7.87),
    ("CCCN(CCN1CCN(c2ccnc3ccccc23)CC1)[C@H]1CCc2nc(N)sc2C1", 7.11),
]

query: Look up pEC50: CCCN(CCC)CCc1cccc2c1CC(=O)N2
result: 6.52

---

target: D(3) dopamine receptor (Homo sapiens, UniProt P35462); experiment: biochemical
Sequence (P35462 whole entry): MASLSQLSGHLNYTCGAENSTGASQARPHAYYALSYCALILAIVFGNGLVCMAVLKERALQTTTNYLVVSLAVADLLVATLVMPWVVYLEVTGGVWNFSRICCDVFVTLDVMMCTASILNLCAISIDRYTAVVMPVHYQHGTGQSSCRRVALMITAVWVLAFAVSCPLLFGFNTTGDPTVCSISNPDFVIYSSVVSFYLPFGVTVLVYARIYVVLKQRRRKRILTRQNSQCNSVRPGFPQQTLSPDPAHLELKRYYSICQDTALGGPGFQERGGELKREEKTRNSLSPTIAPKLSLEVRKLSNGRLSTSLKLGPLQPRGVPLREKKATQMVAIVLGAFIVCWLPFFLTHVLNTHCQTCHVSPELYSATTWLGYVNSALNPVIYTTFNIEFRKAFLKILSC
Readout kind: EC50 (nM)
Value expressed in nM; do not type the unit.

Below, 2 molecules whose answers are already recorded.
# Chemical string, EC50 (nM)
records = [
    ("CCCN(CCN1CCN(c2nccc3ccccc23)CC1)[C@H]1CCc2nc(N)sc2C1", 0.52),
    ("CCCN(CCN1CCN(c2cccc3ncccc23)CC1)[C@H]1CCc2nc(N)sc2C1", 0.528),
]

The record that follows has no EC50 shown yet.
query: What value of measured EC50 is listed for CCCN(CCN1CCN(c2ccnc3ccccc23)CC1)[C@H]1CCc2nc(N)sc2C1 ?
result: 0.493

---

Reported pKi values, UniProtKB P61169.
Sequence (P61169 whole entry): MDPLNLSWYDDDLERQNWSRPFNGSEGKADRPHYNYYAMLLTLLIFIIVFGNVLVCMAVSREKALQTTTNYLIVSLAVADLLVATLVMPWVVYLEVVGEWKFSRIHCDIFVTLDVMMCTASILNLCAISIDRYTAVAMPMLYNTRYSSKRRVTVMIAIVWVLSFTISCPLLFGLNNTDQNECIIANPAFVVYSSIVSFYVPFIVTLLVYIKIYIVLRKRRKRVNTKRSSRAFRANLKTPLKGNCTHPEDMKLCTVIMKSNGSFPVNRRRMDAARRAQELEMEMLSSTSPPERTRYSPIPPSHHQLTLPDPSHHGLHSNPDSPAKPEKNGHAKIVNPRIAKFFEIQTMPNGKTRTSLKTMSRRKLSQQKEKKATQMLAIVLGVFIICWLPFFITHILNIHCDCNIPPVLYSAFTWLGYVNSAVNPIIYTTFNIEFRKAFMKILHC
To interpret pKi, take it as minus log10 of a concentration measured in moles per litre.

# Molecule, Test value
data = [
    ("CCCN(CCN1CCN(c2cccc3ccccc23)CC1)C1CCc2ccc(O)cc2C1 (stereo not drawn)", 7.87),
    ("CCCN(CCN1CCN(c2ccnc3ccccc23)CC1)[C@H]1CCc2nc(N)sc2C1", 6.96),
]

query: Query: pKi; subject: CCCN(CCN1CCN(c2ccc(-c3ccncc3)cc2)CC1)[C@H]1CCc2nc(N)sc2C1
result: 6.57

query: Using the record for CCCN(CCN1CCN(c2cccc3ncccc23)CC1)C1CCc2ccc(O)cc2C1 (stereo not drawn) , report its pKi.
result: 8.28

query: Consider the molecule shown here: CCCN(CCN1CCN(c2nccc3ccccc23)CC1)C1CCc2ccc(O)cc2C1 (stereo not drawn) What is its recorded pKi?
result: 7.66

query: Data request, read-out pKi, for CCCN(CCN1CCN(c2cccc3ncccc23)CC1)[C@H]1CCc2nc(N)sc2C1
result: 7.24

query: Requested field: pKi. Item: CCCN(CCN1CCN(c2ccc3ccccc3c2)CC1)C1CCc2ccc(O)cc2C1 (stereo not drawn)
result: 8.05

query: Return reported pKi; argument: CCCN(CCN1CCN(c2nccc3ccccc23)CC1)[C@H]1CCc2nc(N)sc2C1
result: 6.57

---

These molecules were tested on UniProt:P14416; pEC50 is the recorded read-out.
pEC50 is a log-scale quantity: -log10 of the concentration expressed in molar.

# Chemical string, Target system, Test value
rows = [
    ("CCCN(CCN1CCN(c2nccc3ccccc23)CC1)[C@H]1CCc2nc(N)sc2C1", "UniProt:P14416", 6.94),
]

query: Record request: pEC50 value, item CCCN(CCN1CCN(c2ccc(-c3ccccc3)cc2)CC1)[C@H]1CCc2nc(N)sc2C1
result: 7.70
